Target: p53 (UniProt P04637 1-393)
Sequence (P04637 whole entry): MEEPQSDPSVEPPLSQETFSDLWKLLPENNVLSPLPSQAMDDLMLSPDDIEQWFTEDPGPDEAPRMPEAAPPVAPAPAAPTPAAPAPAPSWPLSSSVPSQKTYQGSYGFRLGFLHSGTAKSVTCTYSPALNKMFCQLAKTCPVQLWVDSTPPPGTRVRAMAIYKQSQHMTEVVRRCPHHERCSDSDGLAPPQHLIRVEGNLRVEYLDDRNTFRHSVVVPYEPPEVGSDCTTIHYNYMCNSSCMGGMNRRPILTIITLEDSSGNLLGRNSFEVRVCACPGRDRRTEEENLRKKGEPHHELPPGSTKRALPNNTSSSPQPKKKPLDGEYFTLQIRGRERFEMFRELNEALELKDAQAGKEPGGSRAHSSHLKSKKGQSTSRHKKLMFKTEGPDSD
Assay: biotinylated DNA pull-down, western blot; 10 mM Tris-HCl pH 8.0, 40 mM KCl, 1 mM DTT, 6% glycerol, 0.05% NP-40; overnight at 4 °C; 20 µg p53, 1 µg biotinylated oligo; beads washed with Tris-EDTA (100 mM NaCl), binding buffer, PBS
Conditions: protein: recombinant; chain copies: 4; label: biotin

# binder, binding result
data = [
    ("RE2 mutant (dsDNA) DNA 1: GTGTCGCAAGAGGTATAGTCTCATGCTT DNA 2: AAGCATGAGACTATACCTCTTGCGACAC", "no binding"),
    ("RE1 wild-type (dsDNA) DNA 1: TTACATGTTGAAATACTTGTAT DNA 2: ATACAAGTATTTCAACATGTAA", "binds"),
    ("RE2 wild-type (dsDNA) DNA 1: GTGCATGAAGAGGTATAGTCTCATGCTT DNA 2: AAGCATGAGACTATACCTCTTCATGCAC", "binds"),
    ("RE1 mutant (dsDNA) DNA 1: TTATCGCTTGAAATACTTGTAT DNA 2: ATACAAGTATTTCAAGCGATAA", "no binding"),
]
